// values below are reported residual activity
# Tgt: UniProt P17612
# Experiment Description: radiometric filter-binding kinase assay
# Test Conditions: compound 0.01 µM
Measured Metric: residual activity (%)

| Compound | Tgt | U | Measured Result |
| --- | --- | --- | --- |
| CNC(=O)C1[C@H]2O[C@@](C)([C@@H]1N)n1c3ccccc3c3c4c(c5c6ccccc6n2c5c31)C(=O)NC4 (stereo partly specified) | UniProt P17612 | % | 29 |
| C/C(=C1/C(=O)Nc2ccc(NC(N)=O)cc21)c1ccc[nH]1 | UniProt P17612 | % | 87 |
| O=C(Nc1nc2cc(C(F)(F)F)cc(NC3CC3)n2n1)c1cccnc1 | UniProt P17612 | % | 98 |
| COc1cc(O)c2c(c1)[C@H]1OC1C[C@H](O)[C@H](O)C(=O)/C=C\C[C@H](C)OC2=O (stereo partly specified) | UniProt P17612 | % | 91 |
| CNc1nc(-c2ccc3c(N)n[nH]c3c2)cc(N2C[C@@H](C(=O)NC3CCCCC3)CC[C@H]2C)n1 | UniProt P17612 | % | 103 |
| COc1ccc(N(C(=O)Nc2c(C)cccc2C)c2cc(Nc3ccc(N4CCN(C)CC4)cc3)ncn2)c(OC)c1 | UniProt P17612 | % | 91 |

* * *

Readings of residual activity for the listed molecules
# Tgt: MAP3K7 TAB1 (human) (UniProt Q15750+O43318)
# Sequence (O43318 whole entry, looked up): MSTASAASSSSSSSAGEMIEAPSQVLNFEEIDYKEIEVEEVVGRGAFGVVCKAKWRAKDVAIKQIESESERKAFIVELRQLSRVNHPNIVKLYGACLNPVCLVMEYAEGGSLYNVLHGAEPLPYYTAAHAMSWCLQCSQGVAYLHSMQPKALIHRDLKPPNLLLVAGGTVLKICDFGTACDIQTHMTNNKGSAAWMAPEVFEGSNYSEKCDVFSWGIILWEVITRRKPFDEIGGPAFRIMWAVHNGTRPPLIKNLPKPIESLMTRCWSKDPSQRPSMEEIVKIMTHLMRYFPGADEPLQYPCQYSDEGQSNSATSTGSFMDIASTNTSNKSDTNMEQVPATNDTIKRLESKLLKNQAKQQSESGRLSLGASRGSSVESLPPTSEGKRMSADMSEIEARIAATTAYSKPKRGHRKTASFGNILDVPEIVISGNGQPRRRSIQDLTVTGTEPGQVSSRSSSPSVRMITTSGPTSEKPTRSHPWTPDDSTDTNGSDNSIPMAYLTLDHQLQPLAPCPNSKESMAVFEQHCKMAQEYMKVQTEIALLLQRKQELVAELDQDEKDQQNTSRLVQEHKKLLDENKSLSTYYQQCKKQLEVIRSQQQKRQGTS
# Sequence (Q15750 whole entry, looked up): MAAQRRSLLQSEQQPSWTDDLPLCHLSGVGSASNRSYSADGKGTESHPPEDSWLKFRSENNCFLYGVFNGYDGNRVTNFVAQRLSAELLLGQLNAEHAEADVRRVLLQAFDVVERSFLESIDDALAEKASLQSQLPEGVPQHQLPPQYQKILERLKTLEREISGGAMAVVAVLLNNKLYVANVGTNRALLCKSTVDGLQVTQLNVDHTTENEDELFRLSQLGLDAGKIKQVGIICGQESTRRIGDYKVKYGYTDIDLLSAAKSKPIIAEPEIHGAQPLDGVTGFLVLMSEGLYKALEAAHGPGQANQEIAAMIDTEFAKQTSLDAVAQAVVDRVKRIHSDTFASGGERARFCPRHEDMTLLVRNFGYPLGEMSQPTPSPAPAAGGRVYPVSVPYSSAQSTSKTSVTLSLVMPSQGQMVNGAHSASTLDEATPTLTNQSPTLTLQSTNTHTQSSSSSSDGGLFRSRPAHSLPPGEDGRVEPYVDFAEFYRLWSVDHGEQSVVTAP
# Experiment Description: radiometric filter-binding kinase assay
# Test Conditions: compound 10.0 µM
Measured Metric: residual activity (%)

| Molecule | Tgt | Measured Result |
| --- | --- | --- |
| O=C(NOC[C@H](O)CO)c1ccc(F)c(F)c1Nc1ccc(I)cc1Cl | MAP3K7 TAB1 (human) (UniProt Q15750+O43318) | 82 |
| Cc1ccc(Sc2cnc(Nc3cccc(Br)n3)s2)cc1C(=O)N1CCN(C(=O)CN)CC1 | MAP3K7 TAB1 (human) (UniProt Q15750+O43318) | 27 |
| NCC(=O)Nc1ccc(-n2nc(C(F)(F)F)cc2-c2ccc3c(ccc4ccccc43)c2)cc1 | MAP3K7 TAB1 (human) (UniProt Q15750+O43318) | 36 |
| O=C(Nc1cccnc1)c1cc(-c2ccnc(F)c2)ccc1OCc1ccccc1 | MAP3K7 TAB1 (human) (UniProt Q15750+O43318) | 101 |
| O=C(Nc1ccccc1-c1cn2c(CN3CCNCC3)csc2n1)c1cnc2ccccc2n1 | MAP3K7 TAB1 (human) (UniProt Q15750+O43318) | 86 |
| CNc1nc(-c2ccc3c(N)n[nH]c3c2)cc(N2C[C@@H](C(=O)NC3CCCCC3)CC[C@H]2C)n1 | MAP3K7 TAB1 (human) (UniProt Q15750+O43318) | 79 |
| Cc1ccc2c(c1)C(=O)[C@@]1(O)CCN(c3ccccc3)C1=N2 | MAP3K7 TAB1 (human) (UniProt Q15750+O43318) | 96 |
| CCNc1nc(Nc2cc(F)c(C(=O)N3CCOCC3)cc2OC)ncc1C(F)(F)F | MAP3K7 TAB1 (human) (UniProt Q15750+O43318) | 2 |
| CC1=C(CO)C(=O)O[C@@H]([C@@H](C)[C@H]2CC[C@H]3[C@@H]4C[C@H]5O[C@]56[C@@H](O)C=CC(=O)[C@]6(C)C4CC[C@]23C)C1 (some centres undefined) | MAP3K7 TAB1 (human) (UniProt Q15750+O43318) | 109 |

* * *

# Tgt: PIM3 (human) (UniProt Q86V86)
# Experiment Description: radiometric filter-binding kinase assay
# Test Conditions: compound 0.01 µM
Answer not satisfied if residual activity is under 90%, and satisfied if it is 90% or more.

| Molecule | Tgt | Assigned Label |
| --- | --- | --- |
| C/C(=C1/C(=O)Nc2ccc(NC(N)=O)cc21)c1ccc[nH]1 | PIM3 (human) (UniProt Q86V86) | not satisfied |
| CNC(=O)C1[C@H]2O[C@@](C)([C@@H]1N)n1c3ccccc3c3c4c(c5c6ccccc6n2c5c31)C(=O)NC4 (stereo partly specified) | PIM3 (human) (UniProt Q86V86) | not satisfied |
| COc1ccc(N(C(=O)Nc2c(C)cccc2C)c2cc(Nc3ccc(N4CCN(C)CC4)cc3)ncn2)c(OC)c1 | PIM3 (human) (UniProt Q86V86) | satisfied |
| O=C(Nc1nc2cc(C(F)(F)F)cc(NC3CC3)n2n1)c1cccnc1 | PIM3 (human) (UniProt Q86V86) | satisfied |
| CNc1nc(-c2ccc3c(N)n[nH]c3c2)cc(N2C[C@@H](C(=O)NC3CCCCC3)CC[C@H]2C)n1 | PIM3 (human) (UniProt Q86V86) | satisfied |

* * *

Measured residual activity by item
# Tgt: STK11 CAB39 STRADA (human) (UniProt Q9Y376+Q7RTN6+Q15831)
# Sequence (Q15831 whole entry, looked up): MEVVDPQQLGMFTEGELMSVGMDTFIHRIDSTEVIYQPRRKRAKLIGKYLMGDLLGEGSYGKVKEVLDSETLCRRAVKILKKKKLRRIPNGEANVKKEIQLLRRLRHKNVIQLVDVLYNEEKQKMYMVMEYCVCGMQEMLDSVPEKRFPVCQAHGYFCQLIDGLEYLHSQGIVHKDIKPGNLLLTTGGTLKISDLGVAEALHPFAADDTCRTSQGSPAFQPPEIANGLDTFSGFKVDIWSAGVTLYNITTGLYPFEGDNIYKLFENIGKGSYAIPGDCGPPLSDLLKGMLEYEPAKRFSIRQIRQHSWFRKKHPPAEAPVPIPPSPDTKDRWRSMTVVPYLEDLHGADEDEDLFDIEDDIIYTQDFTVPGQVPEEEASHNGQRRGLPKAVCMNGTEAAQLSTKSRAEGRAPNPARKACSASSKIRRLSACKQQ
# Sequence (Q7RTN6 whole entry, looked up): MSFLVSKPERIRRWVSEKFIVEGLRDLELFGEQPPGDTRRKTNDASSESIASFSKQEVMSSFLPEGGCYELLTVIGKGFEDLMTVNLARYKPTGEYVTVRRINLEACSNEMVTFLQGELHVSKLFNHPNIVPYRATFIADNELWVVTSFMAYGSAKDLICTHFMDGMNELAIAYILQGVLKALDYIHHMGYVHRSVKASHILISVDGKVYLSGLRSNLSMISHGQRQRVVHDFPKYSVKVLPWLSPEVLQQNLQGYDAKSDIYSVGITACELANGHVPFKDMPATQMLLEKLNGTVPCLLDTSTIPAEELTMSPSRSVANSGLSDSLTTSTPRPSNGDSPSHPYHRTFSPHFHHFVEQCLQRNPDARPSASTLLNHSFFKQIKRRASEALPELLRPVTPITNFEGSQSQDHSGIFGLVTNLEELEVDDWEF
# Sequence (Q9Y376 whole entry, looked up): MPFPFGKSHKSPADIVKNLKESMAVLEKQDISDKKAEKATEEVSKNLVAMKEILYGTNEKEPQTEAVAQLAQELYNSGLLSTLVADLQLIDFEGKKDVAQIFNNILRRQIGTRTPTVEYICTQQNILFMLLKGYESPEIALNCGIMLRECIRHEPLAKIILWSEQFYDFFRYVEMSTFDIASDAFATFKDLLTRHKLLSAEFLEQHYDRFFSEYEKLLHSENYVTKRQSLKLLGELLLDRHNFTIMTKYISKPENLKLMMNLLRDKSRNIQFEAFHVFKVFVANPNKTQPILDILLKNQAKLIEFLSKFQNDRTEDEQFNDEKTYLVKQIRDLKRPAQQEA
# Experiment Description: radiometric filter-binding kinase assay
# Test Conditions: compound 0.1 µM
Measured Metric: residual activity (%)

| Compound | Measured Metric | U | Measured Result |
| --- | --- | --- | --- |
| CCn1c(-c2nonc2N)nc2cncc(CNC3CCNCC3)c21 | residual activity | % | 108 |
| C=CC(=O)N1CCC[C@@H](n2nc(-c3ccc(Oc4ccccc4)cc3)c3c(N)ncnc32)C1 | residual activity | % | 106 |
| CNC(=O)C1[C@H]2O[C@@](C)([C@@H]1N)n1c3ccccc3c3c4c(c5c6ccccc6n2c5c31)C(=O)NC4 (some centres not stated) | residual activity | % | 50 |
| Cc1cc(NC(=O)c2cccc(NC(=O)/C=C/CN(C)C)c2)ccc1Nc1nccc(-c2cccnc2)n1 | residual activity | % | 106 |
| O=C(Nc1nc2cc(C(F)(F)F)cc(NC3CC3)n2n1)c1cccnc1 | residual activity | % | 132 |
| COc1ccc(N(C(=O)Nc2c(C)cccc2C)c2cc(Nc3ccc(N4CCN(C)CC4)cc3)ncn2)c(OC)c1 | residual activity | % | 106 |
| CCCCCc1ccc(/C=C/[C@H](O)[C@@H](CO)NC)cc1 | residual activity | % | 93 |

* * *

# Tgt: NEK2 (human)
# Experiment Description: radiometric filter-binding kinase assay
# Test Conditions: compound 10.0 µM
Measured Metric: residual activity (%)

| Molecule | Tgt | Measured Metric | Measured Result |
| --- | --- | --- | --- |
| O=C(N[C@@H](COc1ccc2[nH]c(=O)[nH]c2c1)c1ccccc1)c1cccn(Cc2ccc(F)c(F)c2)c1=O | NEK2 (human) | residual activity | 96 |
| Cc1ccc(-c2ccc3c(ccc4sc5c(c43)NC[C@@H](C)NC5=O)n2)cn1 | NEK2 (human) | residual activity | 88 |
| NS(=O)(=O)OC[C@@H]1C[C@@H](n2ccc3c(N[C@H]4CCc5ccccc54)ncnc32)C[C@@H]1O | NEK2 (human) | residual activity | 100 |
| Nc1cccc2c1CN(C1CCC(=O)NC1=O)C2=O (stereo not given) | NEK2 (human) | residual activity | 96 |
| c1ccc2c(-c3cnn4cc(-c5ccc(N6CCNCC6)cc5)cnc34)ccnc2c1 | NEK2 (human) | residual activity | 79 |

* * *

# Tgt: CSNK2A1 (human)
# Experiment Description: radiometric filter-binding kinase assay
# Test Conditions: compound 10.0 µM

| Compound String | Tgt | residual activity [%] |
| --- | --- | --- |
| Cn1nc(Nc2ccc(F)cc2)c2c(N)ncnc21 | CSNK2A1 (human) | 96 |
| CCn1c(-c2nonc2N)nc2cncc(CNC3CCNCC3)c21 | CSNK2A1 (human) | 86 |
| O=S(=O)(c1ccc(F)c2nonc12)N1CCN(c2ncc(C(F)(F)F)cc2Cl)CC1 | CSNK2A1 (human) | 79 |
| NC1(c2ccc(-c3nc4ccn5c(=O)[nH]nc5c4cc3-c3ccccc3)cc2)CCC1 | CSNK2A1 (human) | 84 |

* * *

# Tgt: STK33 (human) (UniProt Q9BYT3)
# Sequence (Q9BYT3 whole entry, looked up): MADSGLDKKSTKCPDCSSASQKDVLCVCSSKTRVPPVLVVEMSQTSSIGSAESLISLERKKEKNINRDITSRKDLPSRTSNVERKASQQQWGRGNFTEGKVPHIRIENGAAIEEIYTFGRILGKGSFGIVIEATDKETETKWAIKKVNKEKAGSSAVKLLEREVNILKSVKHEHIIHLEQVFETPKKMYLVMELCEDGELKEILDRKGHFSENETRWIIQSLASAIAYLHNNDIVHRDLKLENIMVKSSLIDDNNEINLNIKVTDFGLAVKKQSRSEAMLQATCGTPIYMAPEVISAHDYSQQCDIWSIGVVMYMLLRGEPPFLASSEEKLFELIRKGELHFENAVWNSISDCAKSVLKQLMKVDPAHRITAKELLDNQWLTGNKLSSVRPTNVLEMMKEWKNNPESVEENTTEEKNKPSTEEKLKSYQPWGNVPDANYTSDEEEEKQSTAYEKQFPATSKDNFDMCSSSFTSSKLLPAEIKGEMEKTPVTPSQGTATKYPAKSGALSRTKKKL
# Experiment Description: radiometric filter-binding kinase assay
# Test Conditions: compound 0.01 µM
This section presents compounds with their documented residual activity values.
Measured Metric: residual activity

| Compound | Measured Result |
| --- | --- |
| COc1cc(O)c2c(c1)[C@H]1OC1C[C@H](O)[C@H](O)C(=O)/C=C\C[C@H](C)OC2=O (some centres undefined) | 113% |
| CNC(=O)C1[C@H]2O[C@@](C)([C@@H]1N)n1c3ccccc3c3c4c(c5c6ccccc6n2c5c31)C(=O)NC4 (some centres undefined) | 44% |
| COc1ccc(N(C(=O)Nc2c(C)cccc2C)c2cc(Nc3ccc(N4CCN(C)CC4)cc3)ncn2)c(OC)c1 | 113% |
| O=C(Nc1nc2cc(C(F)(F)F)cc(NC3CC3)n2n1)c1cccnc1 | 97% |
